- Test system: L1210 leukemia ip in BDF1 mice, survival T/C
- METHOD_DESCRIPTION: NCI In Vivo Anticancer Drug Screen. Data for tumor model L1210 Leukemia (intraperitoneal) in B6D2F1 (BDF1) mice
- CONDITION: endpoint: mean survival time; dose: 50.0 mg/kg/injection; schedule: Q04DX002 (ip); vehicle: Klucel (hydroxypropylcellulose) (HPC); higher = longer survival
Inconclusive results and toxic doses are left out.
Measured T/C by item

# COMPOUND, T/C
records = [
    ("COC(=O)C(=O)CC(=O)c1cccc(OC)c1", "100 % of control"),
    ("Cc1cc(C)c(C2CC3CCC2C3)cc1N (stereo not given)", "100 % of control"),
    ("CC(=O)OC1CCC2(C)C(=CCC3C2CCC2(C)C3CC3C(c4ccccc4)=NN(c4ccccc4)C32C(=O)c2ccccc2)C1 (stereo not given)", "93 % of control"),
    ("NC(=O)C(NC(=O)c1ccccc1)SCc1ccccc1 (stereo not given)", "95 % of control"),
    ("O=C(CN1C2CCC1CC(O)C2)NCC1C(c2ccccc2)C1c1ccccc1 (stereo not given)", "95 % of control"),
]
